Target: delta opioid receptor (Rattus norvegicus)
Sequence (P33533 whole entry): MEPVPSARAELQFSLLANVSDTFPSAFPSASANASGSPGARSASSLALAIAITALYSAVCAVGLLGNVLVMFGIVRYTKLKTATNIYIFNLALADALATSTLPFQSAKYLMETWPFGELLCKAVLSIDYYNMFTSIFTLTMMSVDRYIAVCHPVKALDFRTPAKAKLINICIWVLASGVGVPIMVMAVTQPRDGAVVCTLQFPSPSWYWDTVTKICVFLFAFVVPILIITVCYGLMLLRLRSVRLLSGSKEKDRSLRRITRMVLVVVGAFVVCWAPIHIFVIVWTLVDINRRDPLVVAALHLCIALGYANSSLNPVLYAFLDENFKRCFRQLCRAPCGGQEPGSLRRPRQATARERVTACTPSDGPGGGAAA
Assay: Rat brain delta opioid receptor binding assay ([3H]DPDPE)
Details: Rat delta opioid receptor binding constant; rat forebrain membranes, ~4 nM [3H]DPDPE; read-out: DOR Ki
pKi: −log10 of the molar value.
# label = fulfilled if pKi >= 7 else not fulfilled

compound	label.class
CC(C)(CO)NC(=O)c1ccc2c(c1)Oc1ccccc1C2=C1CC2CCC(C1)N2	not fulfilled
S=c1[nH]c(-c2ccc3c(c2)Oc2ccccc2C3=C2CC3CCC(C2)N3)no1 [Cpd 94]	fulfilled
O=C(NCc1cccc(F)c1)c1ccc2c(c1)Oc1ccccc1C2=C1CC2CCC(C1)N2	fulfilled
COc1cccc2c1Oc1cc(-c3cnc4ccccc4c3)ccc1C2=C1CC2CCC(C1)N2	not fulfilled
COc1cccc2c1Oc1cc(-c3ccccc3NC(C)=O)ccc1C2=C1CC2CCC(C1)N2	fulfilled
O=c1[nH]c(-c2ccc3c(c2)Oc2ccccc2C3=C2CC3CCC(C2)N3)ns1 [Cpd 101]	fulfilled
S=c1[nH]c(-c2ccc3c(c2)Oc2ccccc2C3=C2CC3CCC(C2)N3)no1 [Cpd 93]	fulfilled
COc1cccc2c1Oc1cc(-c3nnn[nH]3)ccc1C2=C1CC2CCC(C1)N2	fulfilled
COc1cccc2c1Oc1cc(-c3ccsc3)ccc1C2=C1CC2CCC(C1)N2	not fulfilled
CCN(CC)C(=N)c1ccc2c(c1)Oc1ccccc1C2=C1CC2CCC(C1)N2	not fulfilled

Is the recorded value of pKi equal to or greater than 7 for this compound? CC(=O)Nc1ccccc1-c1ccc2c(c1)Oc1ccccc1C2=C1CC2CCC(C1)N2C(=O)C(F)(F)F [Cpd 131]
not fulfilled

# bool: pKi of CCOC(=O)N1C2CCC1CC(=C1c3ccccc3Oc3cc(C(=O)N(C)CCO)ccc31)C2 >= 7
not fulfilled

I'd appreciate it if you could say whether CC(C)(C)OC(=O)N1C2CCC1CC(=C1c3ccccc3Oc3cc(C(=O)NCCO)ccc31)C2 has pKi at least equal to 7.
not fulfilled

Confirm if pKi reported for the compound CC(=O)Nc1ccccc1-c1ccc2c(c1)Sc1ccccc1C2=C1CC2CCC(C1)N2C is 7 or above.
not fulfilled

Given the entry Oc1cccc2c1Oc1cc(-c3cnc4ccccc4c3)ccc1C2=C1CC2CCC(C1)N2 , answer whether its pKi meets or surpasses 7.
fulfilled

// inclusive: pKi at least 7? input: COC(=O)c1ccc2c(c1)Sc1ccccc1C2=C1CC2CCC(C1)N2
not fulfilled
